Study system: UniProtKB P10635
Sequence (P10635 whole entry): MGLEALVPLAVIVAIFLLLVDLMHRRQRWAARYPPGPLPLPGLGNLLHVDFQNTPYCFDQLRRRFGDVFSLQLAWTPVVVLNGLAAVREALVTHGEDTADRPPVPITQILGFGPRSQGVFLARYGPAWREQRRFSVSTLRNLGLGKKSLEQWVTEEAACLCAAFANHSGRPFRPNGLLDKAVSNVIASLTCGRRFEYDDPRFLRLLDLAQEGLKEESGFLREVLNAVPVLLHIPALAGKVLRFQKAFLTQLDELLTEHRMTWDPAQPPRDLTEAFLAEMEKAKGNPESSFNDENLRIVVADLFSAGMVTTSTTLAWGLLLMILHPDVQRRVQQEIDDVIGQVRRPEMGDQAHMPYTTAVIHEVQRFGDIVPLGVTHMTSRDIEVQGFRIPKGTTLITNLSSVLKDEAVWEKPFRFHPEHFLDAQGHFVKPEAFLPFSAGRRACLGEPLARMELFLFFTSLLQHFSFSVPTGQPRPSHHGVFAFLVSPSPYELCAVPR
Method summary: CYP inhibition in human liver microsomes
Applied conditions: read-out: CYP-2D6; human liver microsomes; probe substrate dextromethorphan
Experimental: CYP inhibition by test compounds in human liver microsomes (HLM) for seven major CYP450 isoforms CYP1A2, CYP2C9, CYP2D6, CYP2B6, CYP2C8, CYP2C19 and CYP3A4 were assessed. […] The samples were centrifuged and the supernatants were analyzed for the formation of metabolites (1-hydroxymidazolam (CYP3A4), 4-hydroxydiclofenac (CYP2C9), 4-hydroxymephenytoin (CYP2C19) and dextrorphan (CYP2D6), hydroxybupropion (CYP2B6), acetaminophen (CYP1A2), desethylamodiaquine (CYP2C8)) by LC/MS/MS.
Observable: IC50

As a guide, the following entries are already answered.
Cc1c(NC(=O)c2cc(-c3ccco3)on2)cnn1Cc1ccc(C(F)(F)F)cc1C(F)(F)F :: > 50 µM
C[C@H](c1ccc(C(F)(F)F)cc1C(F)(F)F)n1cc(NC(=O)c2cc(-c3cnccn3)on2)cn1 :: > 50 µM
O=C(Nc1cnn(Cc2ccc(C(F)(F)F)cc2C(F)(F)F)c1)c1cc(-c2ncccn2)on1 :: > 50 µM
C[C@H](c1ccc(C(F)(F)F)cc1C(F)(F)F)n1cc(NC(=O)c2cn(-c3ccccn3)nn2)cn1 :: 35.5 µM

Turning now to a further record.
Reported IC50, molecule CC(c1ccc(C(F)(F)F)cc1C(F)(F)F)n1cc(NC(=O)c2nnc(-c3cnccn3)s2)cn1 (centres unmarked) : ____
> 50 µM
